# experimental.target: UniProt Q13822
# procedure.summary: Inhibition of C-terminal FLAG tagged human recombinant ATX expressed in insect sf9 cells at 10 uM using pNP-TMP as substrate measured every 2 mins for 60 mins by absorbance
observed.property: inhibition (%)

O=C(O)c1cccc(N2CCN(C(=O)COc3ccccc3C(F)(F)F)CC2)c1 ... 23.7

[1] O=C(O)c1ccccc1N1CCN(C(=O)COc2ccccc2F)CC1
[2] O=C(COc1ccc(F)cc1)N1CCN(c2ccccc2[N+](=O)[O-])CC1
[3] O=C(O)c1ccc(N2CCN(C(=O)COc3cccc(Cl)c3)CC2)cc1
[4] O=C(COc1cc(Cl)cc(Cl)c1)N1CCN(c2cccc([N+](=O)[O-])c2)CC1
[5] O=C(O)c1ccc(N2CCN(C(=O)COc3ccccc3C(F)(F)F)CC2)cc1
Query block: Sort low-to-high on inhibition, please. # answer = labels listed in requested order
Result block: 1, 5, 3, 2, 4

###

# experimental.target: Autotaxin (Homo sapiens)
# procedure.summary: Inhibition of C-terminal FLAG tagged human recombinant ATX expressed in insect sf9 cells at 10 uM using pNP-TMP as substrate measured every 2 mins for 60 mins by absorbance
observed.property: inhibition (%)

O=C(O)c1cccc(N2CCN(C(=O)COc3ccc(F)cc3)CC2)c1 ... 41.1
O=C(O)c1cccc(N2CCN(C(=O)COc3cccc(Cl)c3)CC2)c1 ... 37.1

[1] O=C(COc1ccccc1Cl)N1CCN(c2cccc([N+](=O)[O-])c2)CC1
[2] O=C(COc1cccc(C(F)(F)F)c1)N1CCN(c2cccc([N+](=O)[O-])c2)CC1
Query block: When their inhibition values are compared, which is larger, 1 or 2 ? Bench note: the answer is the label of the chosen record.
Result block: 2
(2: 14.3%, 1: 4.9%)

###

# experimental.target: Autotaxin (Homo sapiens, UniProt Q13822)
# procedure.summary: Inhibition of C-terminal FLAG tagged human recombinant ATX expressed in insect sf9 cells at 10 uM using FS-3 as substrate measured every 2 mins for 60 mins by FRET assay
observed.property: inhibition (%)

Consider the reported inhibition for these compounds:
O=C(O)c1ccccc1N1CCN(C(=O)COc2ccccc2F)CC1 ... -7.6
O=C(COc1cc(Cl)cc(Cl)c1)N1CCN(c2cccc([N+](=O)[O-])c2)CC1 ... 84.3
O=C(O)c1cccc(N2CCN(C(=O)COc3ccccc3C(F)(F)F)CC2)c1 ... 51.5

[a] O=C(COc1cccc(Cl)c1)N1CCN(c2ccc([N+](=O)[O-])cc2)CC1
[b] Cn1ncc(Cl)c1C(=O)NC1CCC(C(C)(C)C)CC1 (stereo not given)
Query block: Would you mind telling me which has the lower recorded inhibition between a and b ? Bench note: the answer is the label of the chosen record.
Result block: b
(b: 15%, a: 70.6%)

###

# experimental.target: Autotaxin (Homo sapiens)
# procedure.summary: Inhibition of C-terminal FLAG tagged human recombinant ATX expressed in insect sf9 cells at 10 uM using FS-3 as substrate measured every 2 mins for 60 mins by FRET assay
observed.property: inhibition (%)

Consider the reported inhibition for these molecules:
O=c1/c(=C/C=C/c2ccc([N+](=O)[O-])o2)sc2nc3ccccc3n12 ... 5.82
O=C(c1ccco1)N1CCN(C(=O)C2CCCN2C(=O)CC2C=CCC2)CC1 (stereo unspecified) ... 5.7
O=C(O)c1cccc(N2CCN(C(=O)COc3ccccc3F)CC2)c1 ... 10.8
CCCCOc1ccc(S(=O)(=O)N2CC(NCc3ccco3)CC2C(=O)CNO)cc1 (stereo unspecified) ... 38
O=C(COc1ccc(Cl)cc1Cl)N1CCN(c2cccc([N+](=O)[O-])c2)CC1 ... 73.2
O=C(COc1ccc(C(F)(F)F)cc1)N1CCN(c2cccc([N+](=O)[O-])c2)CC1 ... 60.4
O=C(COc1ccc(Cl)cc1)N1CCN(c2ccc([N+](=O)[O-])cc2)CC1 ... 76
Cc1nn(-c2ccccc2)c(O)c1/N=C1\C(=O)N(C)c2ccc(Br)cc21 ... 1.44
O=C(COc1ccccc1F)N1CCN(c2ccccc2[N+](=O)[O-])CC1 ... 25.6
O=C(COc1ccc(C(F)(F)F)cc1)N1CCN(c2ccccc2[N+](=O)[O-])CC1 ... 72.6

[A] Cc1nc(N2CCN(c3ccccc3F)CC2)c2c(C)c(C)sc2n1
[B] O=C(O)c1cccc(N2CCN(C(=O)COc3ccc(Cl)cc3)CC2)c1
[C] COc1ccccc1N1CCN(/N=C(\C)c2ccc3ccccc3c2)CC1
[D] O=C(O)c1ccccc1N1CCN(C(=O)COc2ccc(F)cc2)CC1
[E] CCCC#CC(=O)NCC(=O)Nc1ccc2c3c(cccc13)-c1ccccc1-2
Query block: Thanks in advance: please rank these 5 entries by inhibition, highest to lowest. # answer = labels listed in requested order
Result block: B, D, E, C, A
(B: 79.8%, D: 11.5%, E: 6.06%, C: -0.74%, A: -2.48%)

Attribution: ChEMBL document CHEMBL4431364
